GI50, NCI-H460 lung, per-entry values.
assay-endpoint: GI50

INSERT INTO results (compound, recorded_value) VALUES
  ('Cc1ccc(OCCOCCOCCOCCOCCOc2ccc(C)n(O)c2=S)c(=S)n1O', '25.2 nM'),
  ('NC(=O)c1cc(Br)ccc1NC(=O)/C=C/c1ccccc1', '1420 nM'),
  ('Cn1c(-c2c(N)n(Cc3ccc(F)cc3)c3nc(C#N)c(C#N)nc23)nc2ccccc21', '2210 nM'),
  ('COC(=O)CNc1nc(N(C)O)nc(N(C)O)n1', '557 nM'),
  ('C=C1C(=O)O[C@H]2[C@H]1CC/C(CNC(=O)/C=C/c1ccccc1F)=C\CC[C@@]1(C)O[C@@H]21', '2360 nM'),
  ('CC(C)Cc1ccc(C(C)C(=O)NCc2ccc(Cn3c(=O)sn(CCCI)c3=O)cc2)cc1 (stereo not given)', '1360 nM'),
  ('C/C=C(\C)C(=O)O[C@H]1C=CC(=O)O[C@H]1COC(=O)[C@H](C)O', '10300 nM'),
  ('CN(C)Cc1c(C(=O)NCCOc2ccc(C(=O)NO)cc2)oc2ccccc12', '221 nM'),
  ('Cc1ccccc1C(C(=O)NC1CCCCC1)N(C(=O)CNc1ncccc1F)c1cccc(F)c1 (stereo not given)', '> 100000 nM'),
  ('CC(C)C(=O)c1c(C(F)(F)F)n([O-])c2ccccc2[n+]1=O', '1720 nM');

---

Tested on: HOP-62 NSCLC
Assay: NCI tumour cell line growth inhibition, 48 h
assay-endpoint: TGI

INSERT INTO measurements (compound, recorded_value) VALUES
  ('C=C1CC2C3C=C(C)C4=CC(=O)CC[C@]4(C)C3CC[C@]2(C)[C@@]1(OC(C)=O)C(C)=O (stereo not given in full)', '> 100 µM'),
  ('CCOC(=O)c1sc2nc1CSc1sc(=S)sc1SCc1nc(sc1C(=O)OCC)-c1nc(c(C(=O)OCC)s1)CSc1sc(=S)sc1SCc1nc-2sc1C(=O)OCC', '> 10 µM'),
  ('COc1cc(CCNC(=O)OC(C)(C)C)c2c(c1OC)SSSSS2', '15.3 µM'),
  ('COc1ccc(/C=C/C(=O)c2sc(-c3cccnc3)nc2C)cc1', '> 100 µM'),
  ('COc1ccc(N=Nc2c(N)nn(C)c2N)cc1', '> 100 µM'),
  ('C=C1c2nc3ccccc3n2C=C(c2ccc(Cl)cc2)N1c1ccc(OCCN2CCCCC2)cc1', '> 100 µM'),
  ('O=c1c(-c2ccccc2)c(SCCN2CCOCC2)n(-c2ccccc2)c(=S)n1-c1ccccc1', '> 100 µM'),
  ('Nc1nn(C(=O)Nc2c(F)cccc2F)c2ccccc12', '> 100 µM'),
  ('CC(C(=O)n1ccnc1)N1c2ccccc2Sc2ccccc21 (stereo not given)', '> 100 µM'),
  ('Cc1sc2c(c1C)C(c1ccc(Cl)cc1)=N[C@@H](CC(=O)NCCCN1CCN(C)CC1)c1nnc(C)n1-2', '> 100 µM'),
  ('COc1cc(C2C(=O)C(Cl)N2Nc2nc(C)cc(=O)[nH]2)cc(OC)c1OC (stereo not given)', '> 100 µM'),
  ('CNC(=O)c1cccc(C#Cc2cncnc2Nc2ccc(OCc3cccc(F)c3)c(Cl)c2)c1', '10.4 µM'),
  ('COc1ccc(Cn2cc3c(c2-c2cc(OC)c(OC)c(OC)c2)CCc2c(CO)noc2-3)cc1', '25.7 µM'),
  ('C=C1C(=O)C2=CC1CCC(=O)C1(C)CCC(OC(C)=O)C(C)(C)C1CC2O (stereo not given)', '22.8 µM'),
  ('Nc1ncn([C@H]2C[C@H](OP(=O)(O)OC[C@H]3O[C@@H](n4cnc5c(=O)[nH]c(N)nc54)C[C@@H]3O)[C@@H](CO)O2)c(=O)n1', '> 100 µM'),
  ('O=C(Nc1cccc(C(=O)NCCCO)c1)/C(=C/c1ccccc1)NC(=O)c1ccccc1', '> 100 µM'),
  ('C/C=C\C(CC(=O)OC)CC(=O)N(CCC1CN(S(=O)(=O)C(F)(F)F)c2ccccc21)Cc1ccc(OC)cc1OC (stereo not given)', '> 100 µM'),
  ('CN(C)C=Nc1c(I)cc(I)c(CCC(=O)O)c1I', '> 100 µM'),
  ('N#CC1=C(N)Oc2c(sc3c(Br)cccc23)C1c1ccc(Cl)cc1 (stereo not given)', '6.42 µM'),
  ('CN(C)C(=NC#N)N(Cc1ccccc1)Cc1ccccc1', '> 100 µM'),
  ('Cn1c(=O)ccc2c(=O)c3ccccc3oc21', '> 100 µM'),
  ('COC(=O)[C@]12CSC[C@H]1C[C@H](c1cccc3ccccc13)N2', '> 100 µM'),
  ('O=C(O)c1ccc([C@@H]2C(=O)N(O)[C@@H]3C=CC[C@@H]32)cc1', '> 100 µM'),
  ('CCCCCCCCCCCCCCCCCC(=O)OCC1OC(OC)C(NC(=O)N(CCCl)N=O)C(O)C1O (stereo not given)', '> 100 µM'),
  ('O=C(CSSCC(=O)Nc1ccc(Br)cc1)Nc1ccc(Br)cc1', '25.9 µM'),
  ('O=S(=O)(c1cc(Cl)ccc1Cl)N1CCN(c2cccc(Cl)c2)CC1', '> 100 µM'),
  ('CC(C)(C)n1c(=O)n2n(c1=O)C1c3cccc4cccc(c34)C2C2c3cccc4cccc(c34)C1n1c(=O)n(C(C)(C)C)c(=O)n12', '> 100 µM'),
  ('O=C(NC(Cc1ccc(Cl)cc1)C(=O)O)c1ccc(I)cc1 (stereo not given)', '> 100 µM'),
  ('CC(=O)OCCCC#CC#Cc1cccc(=O)o1', '30.4 µM'),
  ('O=[N+]([O-])c1ccc2c(c1)C(c1ccccc1Cl)=Nc1c(n[nH]c1-c1cccnc1)N2', '> 25 µM'),
  ('Cc1ccc2c3c1[C@@H]1O[C@@H]1c1cccc(c1-3)[C@@H]1O[C@H]21', '32 µM'),
  ('COc1ccc2nc3cccc([N+](=O)[O-])c3c(NC(C)CN(C)C)c2c1 (stereo not given)', '2.96 µM'),
  ('COc1cc(O)c2c(c1)C(=O)C1=C(C2=O)C(O)C[C@@](C)(O)C1 (stereo not given in full)', '21.2 µM'),
  ('O=[N+]([O-])c1oc2ccc3ccccc3c2c1CCO', '> 67.1 µM'),
  ('Cc1cccc(Cl)c1NC(=O)c1cnc(Nc2cc(N3CCOCC3)cc(S(C)(=O)=O)c2)s1', '> 10 µM'),
  ('N#Cc1c(-c2ccc(Cl)cc2)c2c([nH]c1=O)-c1cc([N+](=O)[O-])ccc1CCC2', '45.9 µM'),
  ('CC1(C)CCC(C)(C)c2cc(NC(=O)c3ccc(C(=O)O)cc3)ccc21', '> 57.6 µM'),
  ('O=C(O)CCN(CCCN(CCC(=O)O)CCC(=O)O)CCC(=O)O', '> 100 µM'),
  ('O=C1NC(=NCCc2ccccn2)S/C1=C\c1ccc2ncccc2c1', '> 25 µM'),
  ('Cn1cc(C2=C(c3cn(CCCCCO)c4ccccc34)C(=O)NC2=O)c2ccccc21', '15.6 µM');

---

The following molecules are listed with their measured TGI values.
Tested on: SK-MEL-5 melanoma
Assay: NCI tumour cell line growth inhibition, 48 h
assay-endpoint: TGI

INSERT INTO assay_data (molecule, recorded_value) VALUES
  ('Cc1ccc(C(=O)Nc2ncn(C3CC(O)C(CO)O3)c(=O)n2)cc1 (stereo unspecified)', '> 100 µM'),
  ('Cc1cc(C)nc(NS(=O)(=O)c2ccc(NC(=O)NC(F)(F)F)cc2)n1', '> 100 µM'),
  ('Cc1ccc(S(=O)(=O)OCCOCCOCCOCCOCCOS(=O)(=O)c2ccc(C)cc2)cc1', '65 µM'),
  ('COc1ccc(/C=C2\CCC(CCN3CCOCC3)C2=O)cc1 (stereo unspecified)', '> 100 µM'),
  ('S=C1CC(c2ccccc2)Sc2cc(Cl)ccc2N1 (stereo unspecified)', '29.4 µM'),
  ('COc1cccc(C2SCc3nc4ccccc4n32)c1 (stereo unspecified)', '65.7 µM'),
  ('O=C(CSSCC(=O)OCCS(=O)(=O)Nc1ccc(Br)cc1)OCCS(=O)(=O)Nc1ccc(Br)cc1', '26 µM'),
  ('O=c1[nH]c(=O)n(CCOCP(=O)(O)O)nc1Br', '> 100 µM'),
  ('CN1NC(c2ccccc2)=C(C#N)C(=O)CC1c1ccc(F)cc1 (stereo unspecified)', '> 100 µM'),
  ('[Cu+2].[NH-]C(CC(=O)O)C(=O)O.[NH-]C(CC(=O)O)C(=O)O (stereo unspecified)', '> 100 µM'),
  ('COc1cc(CNc2cnc3ccc(N)cc3n2)cc(OC)c1OC', '> 100 µM');
